- procedure-summary: splicing luciferase reporter signal modulators, primary screen, spliceosome inhibition project, cell-based, HEK293, splice +/- reporter (AID 1101);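 further: HEK293 cells carrying a splicing-competent luciferase reporter gene; test concentration not given here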
- settings: luminescence, 24 h, higher = more signal, called active from +8 up or from −8 down
I'd be grateful if you could share measured z-score for these entries.
Numbers only.

// below: answered molecules
COC(=O)[C@@]1(Cc2ccc(OC)cc2)[C@H]2c3cc(C(=O)N4CCCC4)n(CCN4CNCC4=O)c3C[C@H]2CN1C(=O)c1ccccc1 = 0.908
COCCOC(=O)N1C(=O)[C@@]2(c3ccccc31)[C@H](C(=O)N1CCc3cc(OC)c(OC)cc3C1)[C@H]1C(=O)O[C@H](c3ccccc3)[C@H](c3ccccc3)N1[C@@H]2c1ccc(OCCO)cc1 = -1.27

Moving on to another molecule below.
# molecule COC(=O)[C@@]1(Cc2ccc(F)cc2)[C@H]2c3cc(C(=O)N(C)C)n(Cc4cc(F)c(F)c(F)c4)c3C[C@H]2CN1C(=O)c1ccccc1 ; its z-score = -1.91
